Target: T1, cynomolgus monkey CXCR5 (cynomolgus monkey, UniProt P32302 1-372 (human entry))
T1 construct: also called cynoCXCR5; NHP CXCR5
T1 chain: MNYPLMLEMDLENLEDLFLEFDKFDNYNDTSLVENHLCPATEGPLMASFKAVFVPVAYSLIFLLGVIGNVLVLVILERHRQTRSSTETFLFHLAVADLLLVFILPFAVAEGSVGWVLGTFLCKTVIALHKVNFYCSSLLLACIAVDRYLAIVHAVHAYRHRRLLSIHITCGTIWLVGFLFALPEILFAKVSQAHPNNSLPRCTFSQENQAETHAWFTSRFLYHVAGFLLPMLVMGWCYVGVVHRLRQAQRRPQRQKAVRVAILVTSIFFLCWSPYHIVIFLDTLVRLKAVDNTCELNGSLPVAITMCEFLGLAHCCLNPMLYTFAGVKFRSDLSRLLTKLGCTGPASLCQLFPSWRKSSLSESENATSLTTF
Experiment: flow cytometry, cynomolgus PBMC B cells
Experimental: The apparent affinity for cell surface CXCR5 of chimeric and humanized CXCR5 fucosylated and afucosylated antibodies was assessed. […] The apparent affinity of CXCR5 mab binding to CXCR5+ cells (B cells, bona fide Tfh cells, and circulating Tfh-like cells) was calculated as the EC50 of equilibrium binding titration curves in which the geometric mean fluorescence intensity (gMFI) of the antigen binding population was quantified by flow cytometry. […]
Quick reference: log10(EC50) of the listed items.
OBSERVATION TYPE: log10(EC50) (log10 of the value in pM)

>  <BINDER>
Humanized 11G2 154/155 (antibody, human IgG1, kappa, V domains shown, fucosylated human IgG1/kappa; also called h11G2 VL XC154/VH XC155) VH: EVQLVESGGGLVQPGGSLRLSCAASGFTFTDFYMSWVRQAPGKGLEWVGFIRNKANGYTTEYSASVKGRFTISRDNAKNSLYLQMNSLRAEDTAVYYCARVYGSTLHYWGQGTLVTVSS VL: DIQMTQSPSSLSASVGDRVTITCRASESVEYHGTSLMHWYQQKPGKAPKLLIYAASNVESGVPSRFSGSGSGTDFTLTISSLQPEDFATYYCQQSRKVPWTFGQGTKVEIKR

>  <OBSERVATION TYPE>
log10(EC50)

>  <ENDPOINT VALUE>
0.62

$$$$
>  <BINDER>
Afucosyl humanized 11G2 154/155 (antibody, human IgG1, kappa, V domains shown, afucosylated Fc glycan (Asn297), also called afucosyl h11G2 XC154/XC155; afucosylated h11G2 VL XC154/VH XC155) VH: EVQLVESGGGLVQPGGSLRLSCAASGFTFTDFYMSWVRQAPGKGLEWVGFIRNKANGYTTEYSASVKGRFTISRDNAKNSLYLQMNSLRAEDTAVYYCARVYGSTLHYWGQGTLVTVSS VL: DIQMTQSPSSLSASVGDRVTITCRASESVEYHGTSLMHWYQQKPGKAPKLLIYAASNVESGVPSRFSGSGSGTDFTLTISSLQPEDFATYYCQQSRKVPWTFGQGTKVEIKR

>  <OBSERVATION TYPE>
log10(EC50)

>  <ENDPOINT VALUE>
0.12

$$$$
>  <BINDER>
Humanized 11G2 153/155 (antibody, human IgG1, V domains shown, also called h11G2 VH (XC155)/VL (XC153)) VH: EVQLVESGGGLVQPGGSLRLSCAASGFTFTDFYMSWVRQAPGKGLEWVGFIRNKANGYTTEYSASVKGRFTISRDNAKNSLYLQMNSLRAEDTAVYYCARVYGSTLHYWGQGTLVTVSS VL: DIQMTQSPSSLSASVGDRVTITCRASESVEYHGTSLMHWYQQKPGKAPKLLIYAASNVESGVPSRFSGSGSGTDFTLTISSLQPEDFATYFCQQSRKVPWTFGQGTKVEIK

>  <OBSERVATION TYPE>
log10(EC50)

>  <ENDPOINT VALUE>
0.85

$$$$
>  <BINDER>
Chimeric 41A10 (antibody, human IgG1, kappa, V domains shown, mouse V regions on human IgG1/kappa; fucosylated; also called 41A10 (chimeric)) VH: EVQLVESGGDLVKPGGSLKLSCAASGFTFRSYGMSWVRQTPDKRLEWVATISSGGTYTFYPDILKGRITISRDNAKNTLYLQMSNLKSEDTAMYYCARRGEDYRGALEHWGQGTSVTVSS VL: QIVLTQSPAVMSASPGEKVTMTCSASSSVNYIHWYQQKSGTSPKRWIYETSRLASGVPVRFSGSGSGTSYSLTISTMEAEDAATYYCQQWSSNPLTFGAGTKLELKR

>  <OBSERVATION TYPE>
log10(EC50)

>  <ENDPOINT VALUE>
2.74

$$$$
>  <BINDER>
Humanized 41A10 142/148 (antibody, human IgG1, V domains shown, also called h41A10 VH (XC148)/VL (XC142)) VH: EVQLVESGGGLVQPGGSLRLSCAASGFTFRSYGMSWVRQAPGKGLEWVATISSGGTYTFYPDILKGRFTISRDNAKNSLYLQMNSLRAEDTAVYYCARRGEDYRGALEHWGQGTLVTVSS VL: DIQMTQSPSSLSASVGDRVTITCSASSSVNYIHWYQQKPGKAPKRLIYETSRLASGVPSRFSGSGSGTDYTLTISSLQPEDFATYYCQQWSSNPLTFGQGTKVEIK

>  <OBSERVATION TYPE>
log10(EC50)

>  <ENDPOINT VALUE>
3.29

$$$$

Entry source: patent US20210101970A1
